All values here come from patent US11484543B2.

- testedOn: KCNJ5^L168R (Homo sapiens, UniProt P48544, L168R)
- Construct: expressed in transfected cells
- Sequence (P48544 1-419 L168R): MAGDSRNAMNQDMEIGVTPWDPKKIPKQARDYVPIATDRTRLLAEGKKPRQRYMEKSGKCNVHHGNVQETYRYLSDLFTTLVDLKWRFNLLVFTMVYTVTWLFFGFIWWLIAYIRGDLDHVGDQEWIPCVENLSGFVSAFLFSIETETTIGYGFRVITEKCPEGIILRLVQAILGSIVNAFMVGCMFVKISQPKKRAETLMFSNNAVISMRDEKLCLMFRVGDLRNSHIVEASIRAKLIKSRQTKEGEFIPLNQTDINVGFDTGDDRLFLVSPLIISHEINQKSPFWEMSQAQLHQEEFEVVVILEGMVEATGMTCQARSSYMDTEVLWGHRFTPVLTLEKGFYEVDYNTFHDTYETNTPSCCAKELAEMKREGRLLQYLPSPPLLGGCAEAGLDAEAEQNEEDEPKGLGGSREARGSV
- measurementDescription: Cell viability assay (ATP, CellTiter-Glo): rescue of KCNJ5^L168R-induced lethality in inducible HEK293 cells
- Assay type: cell-based
- appliedConditions: tested at 1.1, 3.3 and 10 μM
quantityMeasured: dose response on KCNJ5^L168R

CC[C@H]1OC(=O)[C@H](C)[C@@H](O[C@H]2C[C@@](C)(OC)[C@@H](O)[C@H](C)O2)[C@H](C)[C@@H](O[C@@H]2O[C@H](C)C[C@H](N(C)C)[C@H]2O)[C@](C)(O)C[C@@H](C)/C(=N\OCOCCOC)[C@H](C)[C@@H](O)[C@]1(C)O = showed a dose response
CC[C@H]1OC(=O)[C@H](C)[C@@H](O[C@H]2C[C@@](C)(OC)[C@@H](O)[C@H](C)O2)[C@H](C)[C@@H](O[C@@H]2O[C@H](C)C[C@H](N(C)C)[C@H]2O)[C@](C)(O)C[C@@H](C)C(=NO)[C@H](C)[C@@H](O)[C@]1(C)O = showed a dose response
CC[C@H]1OC(=O)[C@H](C)[C@@H](O[C@H]2C[C@@](C)(OC)[C@@H](O)[C@H](C)O2)[C@H](C)[C@@H](O[C@@H]2O[C@H](C)C[C@H](N(C)C)[C@H]2O)[C@](C)(O)C[C@@H](C)C(=O)[C@H](C)[C@@H](O)[C@]1(C)O = showed a dose response

----------
Listing of entries alongside the reported L168R minimum inhibition.
- testedOn: KCNJ5^L168R (Homo sapiens, UniProt P48544, L168R)
- Construct: expressed in transfected cells
- measurementDescription: Cell viability assay (ATP, CellTiter-Glo): rescue of KCNJ5^L168R-induced lethality in inducible HEK293 cells
- Type: cell-based
- appliedConditions: 10-point dilution 20 to 0.0391 μM, N=3, four-parameter fit
Write the figure, then the unit, nothing else.

Task item: Consider the compound "CC[C@H]1OC(=O)[C@H](C)[C@@H](O[C@H]2C[C@@](C)(OC)[C@@H](O)[C@H](C)O2)[C@H](C)[C@@H](O[C@@H]2O[C@H](C)C[C@H](NC)[C@H]2O)[C@](C)(O)C[C@@H](C)/C(=N\OCOCCOC)[C@H](C)[C@@H](O)[C@]1(C)O" . State its measured L168R minimum inhibition.
Reply: 1.12%

Task item: Consider the compound "CC[C@H]1OC(=O)[C@H](C)[C@@H](O[C@H]2C[C@@](C)(OC)[C@@H](O)[C@H](C)O2)[C@H](C)[C@@H](O[C@@H]2O[C@H](C)C[C@H](N(C)C)[C@H]2O)[C@](C)(O)C[C@@H](C)C(=O)[C@H](C)[C@@H](O)[C@]1(C)O" . State its measured L168R minimum inhibition.
Reply: 0.71%

Task item: Consider the compound "CC[C@H]1OC(=O)[C@H](C)[C@@H](O[C@H]2C[C@@](C)(OC)[C@@H](O)[C@H](C)O2)[C@H](C)[C@@H](O[C@@H]2O[C@H](C)C[C@H](N(C)C)[C@H]2O)[C@](C)(O)C[C@@H](C)C(=NO)[C@H](C)[C@@H](O)[C@]1(C)O" . State its measured L168R minimum inhibition.
Reply: 0.65%

----------
- testedOn: KCNJ5^L168R (Homo sapiens, UniProt P48544, L168R)
- Construct: expressed in transfected cells
- Sequence (P48544 1-419 L168R): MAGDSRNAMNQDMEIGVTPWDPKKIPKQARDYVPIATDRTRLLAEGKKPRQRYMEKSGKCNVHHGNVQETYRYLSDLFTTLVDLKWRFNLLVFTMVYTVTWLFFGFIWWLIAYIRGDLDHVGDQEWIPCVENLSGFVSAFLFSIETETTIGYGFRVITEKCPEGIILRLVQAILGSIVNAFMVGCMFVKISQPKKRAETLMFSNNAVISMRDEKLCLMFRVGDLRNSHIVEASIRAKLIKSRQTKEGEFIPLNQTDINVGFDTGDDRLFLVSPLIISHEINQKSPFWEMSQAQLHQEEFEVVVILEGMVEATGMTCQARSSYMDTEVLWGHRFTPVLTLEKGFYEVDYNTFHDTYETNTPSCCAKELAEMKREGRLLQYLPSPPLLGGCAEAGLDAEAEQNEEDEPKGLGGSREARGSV
- measurementDescription: Cell viability assay (ATP, CellTiter-Glo): rescue of KCNJ5^L168R-induced lethality in inducible HEK293 cells
- Assay type: cell-based
- appliedConditions: 10-point dilution 20 to 0.0391 μM, N=3, four-parameter fit
Parameter threshold = 60%. Response is yes (1) when L168R maximum inhibition meets or exceeds it, else no (0).

CC[C@H]1OC(=O)[C@H](C)[C@@H](O[C@H]2C[C@@](C)(OC)[C@@H](O)[C@H](C)O2)[C@H](C)[C@@H](O[C@@H]2O[C@H](C)C[C@H](N(C)C)[C@H]2O)[C@](C)(OC)C[C@@H](C)C(=O)[C@H](C)[C@@H](O)[C@]1(C)O = no (0)

Task item: Has "CC[C@H]1OC(=O)[C@H](C)[C@@H](O[C@H]2C[C@@](C)(OC)[C@@H](O)[C@H](C)O2)[C@H](C)[C@@H](O[C@@H]2O[C@H](C)C[C@H](N(C)C)[C@H]2O)[C@](C)(O)C[C@@H](C)/C(=N\OCOCCOC)[C@H](C)[C@@H](O)[C@]1(C)O" a recorded L168R maximum inhibition greater than or equal to 60%?
Reply: yes (1)

Task item: Has "CC[C@H]1OC(=O)[C@H](C)[C@@H](O[C@H]2C[C@@](C)(OC)[C@@H](O)[C@H](C)O2)[C@H](C)[C@@H](O[C@@H]2O[C@H](C)C[C@H](N(C)C)[C@H]2O)[C@](C)(O)C[C@@H](C)CN(C)[C@H](C)[C@@H](O)[C@]1(C)O" a recorded L168R maximum inhibition greater than or equal to 60%?
Reply: no (0)

Task item: Has "CC[C@H]1OC(=O)[C@H](C)[C@@H](O[C@H]2C[C@@](C)(O)[C@@H](O)[C@H](C)O2)[C@H](C)[C@@H](O[C@@H]2O[C@H](C)C[C@H](N(C)C)[C@H]2O)[C@](C)(O)C[C@@H](C)C(=O)[C@H](C)[C@@H](O)[C@]1(C)O" a recorded L168R maximum inhibition greater than or equal to 60%?
Reply: no (0)

----------
Listing of entries alongside the reported viability at 10 µM.
- testedOn: KCNJ5^G151R (Homo sapiens, UniProt P48544, G151R)
- Construct: expressed in transfected cells
- Sequence (P48544 1-419 G151R): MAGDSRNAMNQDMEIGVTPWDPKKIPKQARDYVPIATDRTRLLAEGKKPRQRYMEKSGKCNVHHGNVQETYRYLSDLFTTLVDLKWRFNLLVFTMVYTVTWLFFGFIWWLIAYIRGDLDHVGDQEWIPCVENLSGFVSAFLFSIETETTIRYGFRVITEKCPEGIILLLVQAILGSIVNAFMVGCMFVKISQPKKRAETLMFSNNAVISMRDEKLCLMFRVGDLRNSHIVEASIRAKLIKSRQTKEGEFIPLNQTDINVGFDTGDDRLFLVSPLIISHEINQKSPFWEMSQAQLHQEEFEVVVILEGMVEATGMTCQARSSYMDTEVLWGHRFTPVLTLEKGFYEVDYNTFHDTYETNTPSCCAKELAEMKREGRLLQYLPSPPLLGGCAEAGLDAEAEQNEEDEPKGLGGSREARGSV
- measurementDescription: cell-based
- Format: cell-based
- appliedConditions: HEK293, 72 h; 10 μM; mean of primary screen and hit pick; read-out: mean % effect
Counter-ions that a name gives are not always drawn.
The figure you give is taken to be in %; do not add the unit.

CCCNCC(O)COc1ccccc1C(=O)CCc1ccccc1 (centres unmarked) = 42.6
CNC1CC(c2ccc(Cl)c(Cl)c2)c2ccccc21 (centres unmarked) = 65.9

Task item: Consider the molecule CN1CCN(CCCN2c3ccccc3Sc3ccc(C(F)(F)F)cc32)CC1 [YU225091, Trifluoperazine HCl] . State its measured viability at 10 µM.
Reply: 38.7

Task item: Consider the molecule CC(C)COCC(CN(Cc1ccccc1)c1ccccc1)N1CCCC1 (centres unmarked) [YU224969, Bepridil HCl] . State its measured viability at 10 µM.
Reply: 38.7

Task item: Consider the molecule CC(COc1ccccc1)N(CCCl)Cc1ccccc1 (centres unmarked) [YU225090, Phenoxybenzamine-HCl] . State its measured viability at 10 µM.
Reply: 59.9
